# EXPERIMENTAL DETAILS: Half life in pH 7.4 PBS at 100 uM by UV-VIS spectroscopic method
# Format: physicochemical
PROPERTY: half-life at 100 µM (h)
Just the number in h, nothing appended.

half-life at 100 µM lookup needed for C/C(=N\Cc1ccncc1)c1c(O)c2ccccc2oc1=O , thanks.
84

* * *

# EXPERIMENTAL DETAILS: Inhibition of actin-activated rabbit skeletal muscle myosin 2 assessed as phosphate level incubated for 6 to 24 mins by spectrophotometric method
# Design: species or system Oryctolagus cuniculus
pIC50: −log10 of the molar value.
PROPERTY: pIC50

So what does the record say about pIC50 for C/C(=N\CCO)c1c(O)c2ccccc2[nH]c1=O ?
≤ 4.00

Request the reported pIC50 associated with C/C(=N\C(C)C)c1c(O)c2ccccc2[nH]c1=O
≤ 4.00

Requested field: pIC50. Item: CCCC/N=C(\C)c1c(O)c2ccccc2[nH]c1=O
≤ 4.00

* * *

Consider the following compounds; for each one, report its IC50.
# EXPERIMENTAL DETAILS: Inhibition of actin-activated rabbit skeletal muscle myosin 2 assessed as phosphate level incubated for 6 to 24 mins by spectrophotometric method
# Design: species or system Oryctolagus cuniculus

Name the reported IC50 value associated with the compound C/N=C(\C)c1c(O)c2ccccc2oc1=O
≥ 100 µM

State the recorded IC50 for this entry: CCCC/N=C(\C)c1c(O)c2ccccc2n(C)c1=O
≥ 100 µM

Name the reported IC50 value associated with the compound CCCCC/N=C(\C)c1c(O)c2ccccc2[nH]c1=O
≥ 100 µM

The origin of these recorded values is ChEMBL document CHEMBL4665795.
